Target: T1, Cynomolgus CD3εδ Fc heterodimer (Cy CD3ε Fc / CD3δ Fc-HIS) (cynomolgus, UniProt Q95LI8 22-100)
T1 chain 1: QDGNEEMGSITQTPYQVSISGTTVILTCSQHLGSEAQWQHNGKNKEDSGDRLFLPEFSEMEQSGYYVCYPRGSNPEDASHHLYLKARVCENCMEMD
T1 chain 2: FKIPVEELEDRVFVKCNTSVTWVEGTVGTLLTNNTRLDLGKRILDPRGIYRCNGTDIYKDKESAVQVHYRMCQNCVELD
Assay: BLI (Octet), IgG on AHC sensor, pH 7.4
Label scheme for koff: lower than 0.02 s⁻¹ is 0.0, 0.02 s⁻¹ and above is 1.0.

Form field: koff at least 0.02 s⁻¹? Entry: LAD9959_P01_E04 (ADI-57441) (antibody, V domains shown, IgG; also called Ab172) VH: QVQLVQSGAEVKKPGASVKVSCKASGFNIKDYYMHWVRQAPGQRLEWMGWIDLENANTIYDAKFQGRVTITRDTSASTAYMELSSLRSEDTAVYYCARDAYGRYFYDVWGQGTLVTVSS VL: DIVMTQSPDSLAVSLGERATINCKSSQSLLNARTHHNYLAWYQQKPGQPPKLLIYWASTRESGVPDRFSGSGSGTDFTLTISSLQAEDVAVYYCKQSYSRRTFGGGTKVEIK 0.0

Form field: koff at least 0.02 s⁻¹? Entry: LAD9953_P01_H01 (ADI-57437) (antibody, V domains shown, IgG; also called Ab167) VH: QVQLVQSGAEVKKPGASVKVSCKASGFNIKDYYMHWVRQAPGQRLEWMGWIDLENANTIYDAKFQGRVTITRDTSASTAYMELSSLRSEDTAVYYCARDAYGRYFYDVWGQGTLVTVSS VL: DIVMTQSPDSLAVSLGERATINCKSSQSLLHARTHKNYLAWYQQKPGQPPKLLIYWASTRESGVPDRFSGSGSGTDFTLTISSLQAEDVAVYYCKQSYSRRTFGGGTKVEIK 1.0

Form field: koff at least 0.02 s⁻¹? Entry: SAD10320_P01_B03 (ADI-57354) (antibody, V domains shown, IgG; also called Ab61) VH: QVQLVQSGAEVKKPGASVKVSCKASGFNIKDYYMHWVRQAPGQRLEWMGWIDLENANTIYDAKFQGRVTITRDTSASTAYMELSSLRSDDTAVYYCARDQHGRYFYDVWGQGTLVTVSS VL: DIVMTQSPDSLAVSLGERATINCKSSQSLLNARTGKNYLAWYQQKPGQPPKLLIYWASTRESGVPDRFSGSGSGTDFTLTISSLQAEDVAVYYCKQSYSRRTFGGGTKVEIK 0.0

Form field: koff at least 0.02 s⁻¹? Entry: LAD9964_P01_C07 (ADI-57444) (antibody, V domains shown) VH: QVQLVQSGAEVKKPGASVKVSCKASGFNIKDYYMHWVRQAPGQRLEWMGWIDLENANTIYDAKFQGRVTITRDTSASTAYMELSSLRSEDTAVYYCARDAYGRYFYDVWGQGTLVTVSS VL: DIVMTQSPDSLAVSLGERATINCKSSQSLLNARTHKNYLAWYQQKPGQPPKLLIYWASTRESGVPDRFSGSGSGTDFTLTISSLQAEDVAVYYCKQSYSRRTFGGGTKVEIK 0.0

Form field: koff at least 0.02 s⁻¹? Entry: SAD10319_P02_E06 (ADI-57323) (antibody, V domains shown, IgG; also called Ab12) VH: QVQLVQSGAEVKKPGASVKVSCKASGYTFADYAMHWVRQAPGQRLAWMGWINPHTGATFYSQKFQGRVTITRDTSASTAYMELSSLRSEDTAVYYCARDAYGRYFYDHWGQGTLVTVSS VL: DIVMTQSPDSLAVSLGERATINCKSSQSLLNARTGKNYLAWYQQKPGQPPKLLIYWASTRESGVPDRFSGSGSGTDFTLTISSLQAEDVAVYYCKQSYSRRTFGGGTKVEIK 1.0

Form field: koff at least 0.02 s⁻¹? Entry: SAD10319_P02_F06 (ADI-57324) (antibody, V domains shown, IgG; also called Ab13) VH: QVQLVQSGAEVKKPGASVKVSCKASGYTFLSYAMHWVRQAPGQRLERMGWINPSTGATDYSQKFQGRVTITRDTSASTAYMELSSLRSEDTAVYYCARDAYGHYFYDVWGQGTLVTVSS VL: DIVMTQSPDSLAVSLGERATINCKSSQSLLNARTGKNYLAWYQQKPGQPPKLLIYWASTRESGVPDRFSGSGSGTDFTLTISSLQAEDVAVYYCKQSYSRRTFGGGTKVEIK 1.0

Form field: koff at least 0.02 s⁻¹? Entry: SAD10319_P02_A06 (ADI-57320) (antibody, V domains shown, IgG; also called Ab8) VH: QVQLVQSGAEVKKPGASVKVSCKASGYTFDAYAMHWVRQAPGQRLEWMGWIDAGTGATKYSQKFQGRVTITRDTSASTAYMELSSLRSEDTAVYYCARDHYGHYFYDVWGQGTLVTVSS VL: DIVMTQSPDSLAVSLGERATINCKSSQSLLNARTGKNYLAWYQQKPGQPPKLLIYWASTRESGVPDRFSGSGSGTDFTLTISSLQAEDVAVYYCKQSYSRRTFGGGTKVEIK 0.0

Form field: koff at least 0.02 s⁻¹? Entry: LAD9955_P01_G02 (ADI-57439) (antibody, V domains shown, IgG; also called Ab170) VH: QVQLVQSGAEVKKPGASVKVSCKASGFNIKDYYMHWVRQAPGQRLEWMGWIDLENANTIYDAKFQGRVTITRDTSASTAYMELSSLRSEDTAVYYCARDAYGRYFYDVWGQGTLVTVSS VL: DIVMTQSPDSLAVSLGERATINCKSSQSLLHARTGKNHLAWYQQKPGQPPKLLIYWASTRESGVPDRFSGSGSGTDFTLTISSLQAEDVAVYYCKQSYSRRTFGGGTKVEIK 0.0

Form field: koff at least 0.02 s⁻¹? Entry: SAD10319_P02_C06 (ADI-57322) (antibody, V domains shown, IgG; also called Ab10) VH: QVQLVQSGAEVKKPGASVKVSCKASGYTFTSYAMHWVRQAPGQRLEWMGWINPVTGATVYSQKFQGRVTITRDTSASTAYMELSSLRSEDTAVYYCARDAYGHYFYDVWGQGTLVTVSS VL: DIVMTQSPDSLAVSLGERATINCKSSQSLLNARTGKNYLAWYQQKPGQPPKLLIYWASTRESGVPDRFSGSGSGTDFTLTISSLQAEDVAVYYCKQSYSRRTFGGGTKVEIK 1.0

Form field: koff at least 0.02 s⁻¹? Entry: SAD10319_P02_F04 (ADI-57312) (antibody, V domains shown, IgG; also called Ab253) VH: QVQLVQSGAEVKKPGASVKVSCKASGYTFDSYTMHWVRQAPGQRLEWMGYINPDTGATYYSQKFQGRVTITRDTSASTAYMELSSLRSEDTAVYYCARDAYHHYFYDVWGQGTLVTVSS VL: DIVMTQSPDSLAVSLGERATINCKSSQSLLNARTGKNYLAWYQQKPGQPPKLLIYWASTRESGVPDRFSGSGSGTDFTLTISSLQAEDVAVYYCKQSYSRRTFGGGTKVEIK 1.0

Form field: koff at least 0.02 s⁻¹? Entry: SAD10319_P02_H06 (ADI-48633) (antibody, V domains shown, IgG; also called Ab16) VH: QVQLVQSGAEVKKPGASVKVSCKASGYTFTAYVMHWVRQAPGQRLEWMGSIDAGTGNTKYSQKFQGRVTITRDTSASTAYMELSSLRSEDTAVYYCARDAYGHYFYDHWGQGTLVTVSS VL: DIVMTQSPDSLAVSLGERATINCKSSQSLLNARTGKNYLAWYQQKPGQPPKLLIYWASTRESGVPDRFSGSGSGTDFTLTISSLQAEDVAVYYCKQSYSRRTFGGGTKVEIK 0.0
